- TESTED_SYSTEM: BACE1 (Homo sapiens (Human))
- Sequence (P56817 46-501, species assumed): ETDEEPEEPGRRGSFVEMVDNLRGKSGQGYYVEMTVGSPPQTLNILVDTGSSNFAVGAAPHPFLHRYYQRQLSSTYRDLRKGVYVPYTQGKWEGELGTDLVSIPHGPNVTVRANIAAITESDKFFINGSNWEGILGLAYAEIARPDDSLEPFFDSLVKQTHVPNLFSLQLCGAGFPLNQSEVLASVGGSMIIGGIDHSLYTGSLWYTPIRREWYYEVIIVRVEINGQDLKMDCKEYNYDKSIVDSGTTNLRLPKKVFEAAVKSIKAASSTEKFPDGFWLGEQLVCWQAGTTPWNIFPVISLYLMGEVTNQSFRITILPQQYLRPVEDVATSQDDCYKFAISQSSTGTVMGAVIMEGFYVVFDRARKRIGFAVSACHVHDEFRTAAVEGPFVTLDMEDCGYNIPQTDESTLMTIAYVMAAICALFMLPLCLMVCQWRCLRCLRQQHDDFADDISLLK
- MEASUREMENT_PROTOCOL: In vitro BACE1 cell-based assay (Aβ40 in conditioned medium, HTRF)
- TEST_PARAMETERS: Aβ40 in conditioned medium of cells expressing APP, 24 h
- Procedure: In Vitro BACE1 Cell-Based Assay The cell-based assay measures inhibition or reduction of Aβ40 in conditioned medium of test compound treated cells expressing amyloid precursor protein. Cells stably expressing Amyloid Precursor Protein (APP) were plated at a density of 45K cells/well in 384 well plates (Corning/BioCoat 354663). […] After 24 h of incubation with the test compounds, the conditioned media was collected and the Aβ40 levels were determined using HTRF (Homogeneous Time Resolved Fluorescence). […]
IC50 reference

{"columns": ["MOLECULE", "UNITS_OF_MEASURE", "IC50"],
 "data": [
  ["C[C@@]1(c2cc(/C=C(\\F)c3cnc(OCC(F)(F)C(F)F)cn3)ccc2F)CO[C@@](C)(C(F)(F)F)C(N)=N1 [Example 106]", "µM", 4.13],
  ["N#Cc1ccc(/C(F)=C/c2ccc(F)c([C@@]3(C(F)F)N=C(N)O[C@@H]4C[C@@H]43)c2)nc1 [Example 102]", "µM", 0.344],
  ["C#CCOc1cnc(/C(F)=C/c2ccc(F)c([C@@]3(C)N=C(N)OCC3(F)F)c2)cn1 [Example 115]", "µM", 4.67]
]}
